Values from paper PMC12714728

- Tested on: P-gp (MDR1)
- experiment.summary: In vitro cell permeability / P-gp substrate assay
- experimental.conditions: pig, LLC-PK1, pH 7.4, with elacridar (GF120918) 5 µM, Efflux ratio BA/AB, LLC-MDR1, + 5 µM GF120918
assay.readout: efflux ratio at 120 min, 30 nM

Data request, read-out efflux ratio at 120 min, 30 nM, for C[C@H]1O[C@@H](O[C@H]2[C@@H](O)C[C@H](O[C@H]3[C@@H](O)C[C@H](O[C@H]4CC[C@@]5(C)[C@H](CC[C@@H]6[C@@H]5C[C@@H](O)[C@]5(C)[C@@H](C7=CC(=O)OC7)CC[C@]65O)C4)O[C@@H]3C)O[C@@H]2C)C[C@H](O)[C@@H]1O [3H-Digoxin, Digoxin, reference compound]
0.91
